# System: NCI-H1793
# Method Description: relative viability (nuclei count vs DMSO), 5 days (fraction); higher = more cells survive
# Experimental Setup: first compound 0.01581 µM
relative viability under 0.3 gets T, anything at or over 0.3 gets F.

CC1(C)CCC(c2ccc(Cl)cc2)=C(CN2CCN(c3ccc(C(=O)NS(=O)(=O)c4ccc(N[C@H](CCN5CCOCC5)CSc5ccccc5)c(S(=O)(=O)C(F)(F)F)c4)cc3)CC2)C1 [Navitoclax] + CCNC(=O)c1noc(-c2cc(C(C)C)c(O)cc2O)c1-c1ccc(CN2CCOCC2)cc1 [Luminespib] (partner 0.01 µM) | T
CC1(C)CCC(c2ccc(Cl)cc2)=C(CN2CCN(c3ccc(C(=O)NS(=O)(=O)c4ccc(N[C@H](CCN5CCOCC5)CSc5ccccc5)c(S(=O)(=O)C(F)(F)F)c4)cc3)CC2)C1 [Navitoclax] + O=C(CCCCCCC(=O)Nc1ccccc1)NO [Vorinostat] (partner 1 µM) | F

Exercise: # check: relative viability < 0.3 for CC1(C)CCC(c2ccc(Cl)cc2)=C(CN2CCN(c3ccc(C(=O)NS(=O)(=O)c4ccc(N[C@H](CCN5CCOCC5)CSc5ccccc5)c(S(=O)(=O)C(F)(F)F)c4)cc3)CC2)C1 [Navitoclax] + CC(=O)c1c(C)c2cnc(Nc3ccc(N4CCNCC4)cn3)nc2n(C2CCCC2)c1=O [Palbociclib] (partner 0.5 µM)
Solution: T

Exercise: # check: relative viability < 0.3 for CC1(C)CCC(c2ccc(Cl)cc2)=C(CN2CCN(c3ccc(C(=O)NS(=O)(=O)c4ccc(N[C@H](CCN5CCOCC5)CSc5ccccc5)c(S(=O)(=O)C(F)(F)F)c4)cc3)CC2)C1 [Navitoclax] + CC(=O)Nc1cccc(-n2c(=O)n(C3CC3)c(=O)c3c(Nc4ccc(I)cc4F)n(C)c(=O)c(C)c32)c1 [Trametinib] (partner 0.02 µM)
Solution: F

Exercise: # check: relative viability < 0.3 for CC1(C)CCC(c2ccc(Cl)cc2)=C(CN2CCN(c3ccc(C(=O)NS(=O)(=O)c4ccc(N[C@H](CCN5CCOCC5)CSc5ccccc5)c(S(=O)(=O)C(F)(F)F)c4)cc3)CC2)C1 [Navitoclax] + Cc1nc(Nc2ncc(C(=O)Nc3c(C)cccc3Cl)s2)cc(N2CCN(CCO)CC2)n1 [Dasatinib] (partner 0.075 µM)
Solution: F

====

# System: NCI-H1915
# Method Description: relative viability (nuclei count vs DMSO), 5 days (fraction); higher = more cells survive
# Experimental Setup: first compound 0.01 µM
Assay Readout: relative viability

NC(=O)Nc1cc(-c2cccc(F)c2)sc1C(=O)N[C@H]1CCCNC1 [AZD7762] + C[C@]1(O)C[C@@H](c2nc(-c3ccc4ccc(-c5ccccc5)nc4c3)c3c(N)nccn32)C1 [Linsitinib] (partner 1 µM) | 1.09

Exercise: Read the entry NC(=O)Nc1cc(-c2cccc(F)c2)sc1C(=O)N[C@H]1CCCNC1 [AZD7762] + CS(=O)(=O)CCNCc1ccc(-c2ccc3ncnc(Nc4ccc(OCc5cccc(F)c5)c(Cl)c4)c3c2)o1 [Lapatinib] (partner 2 µM) and write its reported relative viability.
Solution: 1

====

relative viability values, listed per item
# Tested on: NCI-H1651
# Method Description: relative viability (nuclei count vs DMSO), 5 days (fraction); higher = more cells survive
# Experimental Setup: first compound 0.1 µM
Reply briefly: the number, and no unit.

A selection of reference data follows.
NC(=O)Nc1cc(-c2cccc(F)c2)sc1C(=O)N[C@H]1CCCNC1 [AZD7762] + O=C(c1cc(Cc2n[nH]c(=O)c3ccccc23)ccc1F)N1CCN(C(=O)C2CC2)CC1 [Olaparib] (partner 8 µM) | 0.156
NC(=O)Nc1cc(-c2cccc(F)c2)sc1C(=O)N[C@H]1CCCNC1 [AZD7762] + CS(=O)(=O)CCNCc1ccc(-c2ccc3ncnc(Nc4ccc(OCc5cccc(F)c5)c(Cl)c4)c3c2)o1 [Lapatinib] (partner 2 µM) | 0.909
NC(=O)Nc1cc(-c2cccc(F)c2)sc1C(=O)N[C@H]1CCCNC1 [AZD7762] + Nc1ncn([C@H]2C[C@H](O)[C@@H](CO)O2)c(=O)n1 [Decitabine] (partner 2 µM) | 0.698

Exercise: Look up NCI-H1651 data: relative viability of NC(=O)Nc1cc(-c2cccc(F)c2)sc1C(=O)N[C@H]1CCCNC1 [AZD7762] + O=C(CCCCCCC(=O)Nc1ccccc1)NO [Vorinostat] (partner 1 µM) , then report it.
Solution: 0.587

Exercise: Look up NCI-H1651 data: relative viability of NC(=O)Nc1cc(-c2cccc(F)c2)sc1C(=O)N[C@H]1CCCNC1 [AZD7762] + N=C(N)NC(=N)NCCc1ccccc1 [Phenformin] (partner 250 µM) , then report it.
Solution: 0.319

Exercise: Look up NCI-H1651 data: relative viability of NC(=O)Nc1cc(-c2cccc(F)c2)sc1C(=O)N[C@H]1CCCNC1 [AZD7762] + CC(C)C[C@H](NC(=O)[C@H](Cc1ccccc1)NC(=O)c1cnccn1)B(O)O [Bortezomib] (partner 0.002 µM) , then report it.
Solution: 1.01

Exercise: Look up NCI-H1651 data: relative viability of NC(=O)Nc1cc(-c2cccc(F)c2)sc1C(=O)N[C@H]1CCCNC1 [AZD7762] + CC1(C)CCC(c2ccc(Cl)cc2)=C(CN2CCN(c3ccc(C(=O)NS(=O)(=O)c4ccc(N[C@H](CCN5CCOCC5)CSc5ccccc5)c(S(=O)(=O)C(F)(F)F)c4)cc3)CC2)C1 [Navitoclax] (partner 0.5 µM) , then report it.
Solution: 0.922

====

# System: SW 1573
# Method Description: relative viability (nuclei count vs DMSO), 5 days (fraction); higher = more cells survive
# Experimental Setup: first compound 0.1265 µM
relative viability under 0.9 gets 1, anything at or over 0.9 gets -1.

Solved cases below.
O=C(O)c1ccc(-c2c[nH]c3ncc(-c4ccccc4)cc23)cc1C1CCCC1 + CS(=O)(=O)CCNCc1ccc(-c2ccc3ncnc(Nc4ccc(OCc5cccc(F)c5)c(Cl)c4)c3c2)o1 [Lapatinib] (partner 2 µM) | -1
O=C(O)c1ccc(-c2c[nH]c3ncc(-c4ccccc4)cc23)cc1C1CCCC1 + Cc1cc(Nc2cc(N3CCN(C)CC3)nc(Sc3ccc(NC(=O)C4CC4)cc3)n2)n[nH]1 [Tozasertib] (partner 0.1 µM) | 1
O=C(O)c1ccc(-c2c[nH]c3ncc(-c4ccccc4)cc23)cc1C1CCCC1 + C[C@]1(O)C[C@@H](c2nc(-c3ccc4ccc(-c5ccccc5)nc4c3)c3c(N)nccn32)C1 [Linsitinib] (partner 1 µM) | 1

Shifting focus to the compound that follows.
Exercise: # check: relative viability < 0.9 for O=C(O)c1ccc(-c2c[nH]c3ncc(-c4ccccc4)cc23)cc1C1CCCC1 + CC(=O)Nc1cccc(-n2c(=O)n(C3CC3)c(=O)c3c(Nc4ccc(I)cc4F)n(C)c(=O)c(C)c32)c1 [Trametinib] (partner 0.02 µM)
Solution: 1

====

# Tested on: RERF-LC-KJ
# Method Description: relative viability (nuclei count vs DMSO), 5 days (fraction); higher = more cells survive
# Experimental Setup: first compound 8 µM
relative viability under 1 gets MET, anything at or over 1 gets NOT MET.

Solved cases below.
C=C1C(=O)O[C@@H](CCCCCCCC)[C@@H]1C(=O)O [C-75] + CC(C)C[C@H](NC(=O)[C@H](Cc1ccccc1)NC(=O)c1cnccn1)B(O)O [Bortezomib] (partner 0.002 µM) | NOT MET
C=C1C(=O)O[C@@H](CCCCCCCC)[C@@H]1C(=O)O [C-75] + Cc1cc(Nc2cc(N3CCN(C)CC3)nc(Sc3ccc(NC(=O)C4CC4)cc3)n2)n[nH]1 [Tozasertib] (partner 0.1 µM) | MET
C=C1C(=O)O[C@@H](CCCCCCCC)[C@@H]1C(=O)O [C-75] + NC(=O)Nc1cc(-c2cccc(F)c2)sc1C(=O)N[C@H]1CCCNC1 [AZD7762] (partner 0.2 µM) | NOT MET
C=C1C(=O)O[C@@H](CCCCCCCC)[C@@H]1C(=O)O [C-75] + COc1cc2c(Oc3ccc(NC(=O)C4(C(=O)Nc5ccc(F)cc5)CC4)cc3F)ccnc2cc1OCCCN1CCOCC1 [Foretinib] (partner 0.25 µM) | MET

Shifting focus to the molecule that follows.
Exercise: # check: relative viability < 1 for C=C1C(=O)O[C@@H](CCCCCCCC)[C@@H]1C(=O)O [C-75] + CC1(C)CCC(c2ccc(Cl)cc2)=C(CN2CCN(c3ccc(C(=O)NS(=O)(=O)c4ccc(N[C@H](CCN5CCOCC5)CSc5ccccc5)c(S(=O)(=O)C(F)(F)F)c4)cc3)CC2)C1 [Navitoclax] (partner 0.5 µM)
Solution: MET

====

relative viability values, listed per item
# System: EBC-1
# Method Description: relative viability (nuclei count vs DMSO), 5 days (fraction); higher = more cells survive
# Experimental Setup: first compound 2.53 µM
Reply briefly: the number, and no unit.

A selection of reference data follows.
Oc1nc(-c2ccc(C(F)(F)F)cc2)nc2c1CSCC2 [XAV939] + Cc1nc(NC(=O)N2CCC[C@H]2C(N)=O)sc1-c1ccnc(C(C)(C)C(F)(F)F)c1 [Alpelisib] (partner 2 µM) | 0.726
Oc1nc(-c2ccc(C(F)(F)F)cc2)nc2c1CSCC2 [XAV939] + CC1(C)CCC(c2ccc(Cl)cc2)=C(CN2CCN(c3ccc(C(=O)NS(=O)(=O)c4ccc(N[C@H](CCN5CCOCC5)CSc5ccccc5)c(S(=O)(=O)C(F)(F)F)c4)cc3)CC2)C1 [Navitoclax] (partner 0.5 µM) | 0.447
Oc1nc(-c2ccc(C(F)(F)F)cc2)nc2c1CSCC2 [XAV939] + CS(=O)(=O)N1CCN(Cc2cc3nc(-c4cccc5[nH]ncc45)nc(N4CCOCC4)c3s2)CC1 [Pictilisib] (partner 1 µM) | 0.261

Exercise: Read the entry C=C1C(=O)O[C@@H](CCCCCCCC)[C@@H]1C(=O)O [C-75] + CS(=O)(=O)N1CCN(Cc2cc3nc(-c4cccc5[nH]ncc45)nc(N4CCOCC4)c3s2)CC1 [Pictilisib] (partner 1 µM) and write its reported relative viability.
Solution: 0.361

Exercise: Read the entry Oc1nc(-c2ccc(C(F)(F)F)cc2)nc2c1CSCC2 [XAV939] + CS(=O)(=O)CCNCc1ccc(-c2ccc3ncnc(Nc4ccc(OCc5cccc(F)c5)c(Cl)c4)c3c2)o1 [Lapatinib] (partner 2 µM) and write its reported relative viability.
Solution: 0.209

Exercise: Read the entry C=C1C(=O)O[C@@H](CCCCCCCC)[C@@H]1C(=O)O [C-75] + C[C@@H](Oc1cc(-c2cnn(C3CCNCC3)c2)cnc1N)c1c(Cl)ccc(F)c1Cl [Crizotinib] (partner 1 µM) and write its reported relative viability.
Solution: 0.179
